Origin of values: paper PMC10202292

assay.target: GST-HsPRMT7 (Homo sapiens)
Construct: full-length human PRMT7 (residues 1–692); 34693; host or cells: E. coli BL21 DE3
Sequence (Q9NVM4 1-692): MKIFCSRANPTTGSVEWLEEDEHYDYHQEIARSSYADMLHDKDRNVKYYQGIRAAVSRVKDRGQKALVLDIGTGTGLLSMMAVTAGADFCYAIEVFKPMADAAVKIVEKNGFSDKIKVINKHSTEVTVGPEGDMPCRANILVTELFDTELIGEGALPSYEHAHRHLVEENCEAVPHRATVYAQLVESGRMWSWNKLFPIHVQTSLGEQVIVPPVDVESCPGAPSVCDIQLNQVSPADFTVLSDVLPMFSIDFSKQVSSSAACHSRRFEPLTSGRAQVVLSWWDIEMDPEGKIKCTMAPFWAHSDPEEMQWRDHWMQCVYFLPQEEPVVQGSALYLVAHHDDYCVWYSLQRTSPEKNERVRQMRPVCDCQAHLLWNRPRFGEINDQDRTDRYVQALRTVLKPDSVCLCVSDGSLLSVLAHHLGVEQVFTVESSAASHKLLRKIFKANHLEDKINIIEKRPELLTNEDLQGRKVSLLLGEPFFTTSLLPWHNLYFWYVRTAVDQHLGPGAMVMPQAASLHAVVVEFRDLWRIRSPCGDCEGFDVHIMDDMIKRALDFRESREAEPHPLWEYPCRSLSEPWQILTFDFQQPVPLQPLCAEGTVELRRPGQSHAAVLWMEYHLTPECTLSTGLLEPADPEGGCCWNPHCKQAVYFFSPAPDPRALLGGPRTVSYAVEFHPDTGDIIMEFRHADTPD
assay.comment: Michaelis-Menten kinetics of peptide substrate methylation (P81 phosphocellulose paper assay)
Assay type: biochemical
Parameters: key: Vmax expressed as cpm (averages of cycles 2–4)
protocol.conditions: no salt; 5 μg GST-HsPRMT7, 0.14 μM [3H]-AdoMet, 60 min, 25°C; GraphPad Prism fit
measure.name: Vmax, Michaelis-Menten best-fit value, Fig8

Some solved entries appear below for comparison.
substance	numeric.readout
Ac-KKDGKKRKRSRKESY-NH2 [Hs H2B (23–37), synthetic peptide of amino acids 23–37 of human histone H2B, PRMT7 substrate used as positive control, reference compound]	17053
Ac-KKGGRGRGGKKY-NH2 [synthetic peptide with an RGR motif flanked by glycine and lysine residues]	2435
Ac-KKGGRGGGGKKY-NH2 [Mono R, synthetic peptide with a single arginine flanked by glycine and lysine residues]	993.4
Ac-KKGKRGRGGKKY-NH2 [synthetic RXR peptide with an additional lysine before the RGR motif]	1150
Ac-KKGGRERGGKKY-NH2 [synthetic RXR peptide with glutamate within the motif]	752.7

I = Ac-KKGGRGRKGKKY-NH2 [synthetic RXR peptide with an additional lysine after the RGR motif]
II = Ac-KKGGRKRGGKKY-NH2 [synthetic RXR peptide with lysine within the motif]
Problem: Hi there! Just curious which has the higher Vmax, Michaelis-Menten best-fit value, Fig8 between I and II . Write down the label of the entry you select.
Solution: II
(II: 1716, I: 969.7)
